Recorded values, source patent US20210221907A1.

Target: T1, recombinant TROP2 protein (UniProt P09758 27-274, limits assumed)
T1 construct: also called rProtein
T1 sequence (looked up): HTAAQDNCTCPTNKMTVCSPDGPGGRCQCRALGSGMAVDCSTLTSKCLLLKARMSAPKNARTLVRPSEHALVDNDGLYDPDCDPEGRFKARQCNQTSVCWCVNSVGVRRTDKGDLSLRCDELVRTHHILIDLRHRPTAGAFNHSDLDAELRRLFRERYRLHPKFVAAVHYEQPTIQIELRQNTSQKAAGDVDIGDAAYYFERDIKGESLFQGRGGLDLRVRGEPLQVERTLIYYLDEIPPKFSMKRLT
Assay: ELISA titration, antibody with varying concentrations of recombinant TROP2 protein
MEASURED QUANTITY: rProtein ELISA Affinity (nM)
Answer with a number only, understood to be in nM.

# input For TROP2-Ab22 (antibody, V domains shown, Monoclonal antibody from a hybridoma clone) VH: QVQLQQSGPELVKPGASVKMSCKASGYTFTDYVINWVKQRPGQGLEWVGQIYPGSDGTYYNEPFKGEATLTADKSSNTAYMQLSSLTSEDSAVYFCARFFEGFAYWGQGTLVTVSA VL: DIKMTQSPSSMFASLGERVTITCKASQDINWYLSWFQQKPGKSPKTLIYRANRLVDGVPSRFSGSGSGQDYSLTISSLDYEDMGVYYCLQYEEFPLTFGAGTKLELK , what is its reported rProtein ELISA Affinity?
# output 0.19
